# Tested on: Phakopsora pachyrhizi (F129L)
# assay text: Protective control of soybean rust on soybeans (PHAKPA P2)
# Assay type: in vivo
# cond: P2 protective, 4 ppm, % diseased leaf area
measured endpoint: PHAKPA (F129L) Disease level (%) P2 at 4 ppm

                                    molecule  assay_result
 0  CO/N=C(/C(=O)OC)c1cccc(C)c1CO/N=C(\SC)c1cccc(Cl)c1 [drawing 982, reference compound]            47
 1  CNC(=O)/C(=N/OC)c1ccccc1CO/N=C(\C)c1cccc(C(F)(F)F)c1 [reference compound]            12
 2  CNC(=O)/C(=N/OC)c1cccc(C)c1CO/N=C(\C)c1ccccc1 [Ex. 31]             0
 3  CO/N=C(/C(=O)OC)c1cccc(C)c1CO/N=C(/c1cccc(C)c1)C1CC1 [drawing 971, reference compound]            80
 4  CNC(=O)/C(=N/OC)c1ccccc1CO/N=C(\C)c1ccc(Cl)cc1 [reference compound]            40
 5  CNC(=O)/C(=N/OC)c1ccccc1CO/N=C(\C)c1ccc(Cl)c(Cl)c1 [reference compound]            43
 6  CNC(=O)/C(=N/OC)c1ccccc1CO/N=C(\C)c1cccc(Br)c1 [reference compound]            27
 7  CO/N=C(/C(=O)OC)c1cccc(C)c1CO/N=C(\C)c1cccc(OC(F)(F)F)c1 [drawing 936, reference compound]            17
 8  COC=C(C(=O)OC)c1cccc(C)c1CON=C(C)c1cccc(C(F)(F)F)c1 [Ex. 231]             0
 9  CO/N=C(/C(=O)OC)c1cccc(C)c1CO/N=C(/c1cccc(Cl)c1)C1CC1 [drawing 981, reference compound]            83
10  CCc1ccc(/C(C)=N/OCc2ccccc2/C(=N\OC)C(=O)NC)cc1 [reference compound]            35
11  CNC(=O)/C(=N/OC)c1cccc(C)c1CO/N=C(\C)c1cccc(C(F)(F)F)c1 [Ex. 8]             1
12  CNC(=O)/C(=N/OC)c1cccc(C)c1CO/N=C(\C)c1cccc(C)c1 [Ex. 77]            37
13  CNC(=O)/C(=N/OC)c1ccccc1CO/N=C(\C)c1cccc(Cl)c1 [reference compound]            43
14  CNC(=O)/C(=N/OC)c1cccc(C)c1CO/N=C(\C)c1ccc(Cl)c(Cl)c1 [Ex. 41]             4
15  CO/N=C(/C(=O)OC)c1cccc(C)c1CO/N=C(\OC)c1cccc(C)c1 [drawing 970, reference compound]            83
